Ref: patent US20200270309A1

molecules and their reported half-life
TEST NAME: Half-lives and pharmacokinetic parameters of polypeptides vs HM-1; note: test concentration or dose not given here
TEST CONDITIONS: in vivo, T1/2β (half-life)
Peptide text beside a SMILES is read from it. * marks the point of attachment. X64 = O=C1C=CC(=O)N1c1cccc(CCCCCCCCCC(=O)*)c1; X4 = O=C1C=CC(=O)N1CCOCCOCCOCCOCCCCCCCC(=O)*; X69 = O=C1C=CC(=O)N1c1ccc(CCCCC(=O)*)cc1; X56 = O=C1C=CC(=O)N1c1ccc(CCC(=O)*)cc1; X31 = O=C1C=CC(=O)N1CCOCCOCCOCC(=O)*; X21 = O=C1C=CC(=O)N1CCOCCCCCCC(=O)*
Unit h implied. Number only.

Example cases with answers are listed next.
C[C@H](NC(=O)CNC(=O)[C@H](CCCNC(=N)N)NC(=O)CCCCCCCOCCOCCOCCOCCN1C(=O)C=CC1=O)C(=O)N[C@@H](CC(=O)O)C(=O)N[C@@H](CCCNC(=N)N)C(=O)N[C@@H](C)C(=O)NCC(=O)NCC(=O)NCC(=O)NCC(=O)N[C@@H](CCCNC(=N)N)C(=O)NCC(=O)N[C@@H](CC(=O)O)C(=O)O [X76] (X4-RGADRAGGGGRGD-OH) | 42
C[C@H](NC(=O)CNC(=O)[C@H](CCCNC(=N)N)NC(=O)COCCOCCOCCN1C(=O)C=CC1=O)C(=O)N[C@@H](CC(=O)O)C(=O)N[C@@H](CCCNC(=N)N)C(=O)N[C@@H](C)C(=O)NCC(=O)NCC(=O)NCC(=O)NCC(=O)N[C@@H](CCCNC(=N)N)C(=O)NCC(=O)N[C@@H](CC(=O)O)C(=O)O [X63] (X31-RGADRAGGGGRGD-OH) | 40
C[C@H](NC(=O)CNC(=O)[C@H](CCCNC(=N)N)NC(=O)CCCCCCCCCc1cccc(N2C(=O)C=CC2=O)c1)C(=O)N[C@@H](CC(=O)O)C(=O)N[C@@H](CCCNC(=N)N)C(=O)N[C@@H](C)C(=O)NCC(=O)NCC(=O)NCC(=O)NCC(=O)N[C@@H](CCCNC(=N)N)C(=O)NCC(=O)N[C@@H](CC(=O)O)C(=O)O [X33] (X64-RGADRAGGGGRGD-OH) | 42.1
C[C@H](NC(=O)CNC(=O)[C@H](CCCNC(=N)N)NC(=O)CCCCc1ccc(N2C(=O)C=CC2=O)cc1)C(=O)N[C@@H](CC(=O)O)C(=O)N[C@@H](CCCNC(=N)N)C(=O)N[C@@H](C)C(=O)NCC(=O)NCC(=O)NCC(=O)NCC(=O)N[C@@H](CCCNC(=N)N)C(=O)NCC(=O)N[C@@H](CC(=O)O)C(=O)O [X40] (X69-RGADRAGGGGRGD-OH) | 42.2
C[C@H](NC(=O)CNC(=O)[C@H](CCCNC(=N)N)NC(=O)CCCCCCOCCN1C(=O)C=CC1=O)C(=O)N[C@@H](CC(=O)O)C(=O)N[C@@H](CCCNC(=N)N)C(=O)N[C@@H](C)C(=O)NCC(=O)NCC(=O)NCC(=O)NCC(=O)N[C@@H](CCCNC(=N)N)C(=O)NCC(=O)N[C@@H](CC(=O)O)C(=O)O [X54] (X21-RGADRAGGGGRGD-OH) | 33.8

Then this molecule:
# half-life (molecule: C[C@H](NC(=O)CNC(=O)[C@H](CCCNC(=N)N)NC(=O)CCc1ccc(N2C(=O)C=CC2=O)cc1)C(=O)N[C@@H](CC(=O)O)C(=O)N[C@@H](CCCNC(=N)N)C(=O)N[C@@H](C)C(=O)NCC(=O)NCC(=O)NCC(=O)NCC(=O)N[C@@H](CCCNC(=N)N)C(=O)NCC(=O)N[C@@H](CC(=O)O)C(=O)O [X38] (X56-RGADRAGGGGRGD-OH) ) is 38.9
